These data points were gathered from patent US9034921B2.

Target: human SGLT2 (Homo sapiens (Human), UniProt P31639)
Sequence (P31639 whole entry): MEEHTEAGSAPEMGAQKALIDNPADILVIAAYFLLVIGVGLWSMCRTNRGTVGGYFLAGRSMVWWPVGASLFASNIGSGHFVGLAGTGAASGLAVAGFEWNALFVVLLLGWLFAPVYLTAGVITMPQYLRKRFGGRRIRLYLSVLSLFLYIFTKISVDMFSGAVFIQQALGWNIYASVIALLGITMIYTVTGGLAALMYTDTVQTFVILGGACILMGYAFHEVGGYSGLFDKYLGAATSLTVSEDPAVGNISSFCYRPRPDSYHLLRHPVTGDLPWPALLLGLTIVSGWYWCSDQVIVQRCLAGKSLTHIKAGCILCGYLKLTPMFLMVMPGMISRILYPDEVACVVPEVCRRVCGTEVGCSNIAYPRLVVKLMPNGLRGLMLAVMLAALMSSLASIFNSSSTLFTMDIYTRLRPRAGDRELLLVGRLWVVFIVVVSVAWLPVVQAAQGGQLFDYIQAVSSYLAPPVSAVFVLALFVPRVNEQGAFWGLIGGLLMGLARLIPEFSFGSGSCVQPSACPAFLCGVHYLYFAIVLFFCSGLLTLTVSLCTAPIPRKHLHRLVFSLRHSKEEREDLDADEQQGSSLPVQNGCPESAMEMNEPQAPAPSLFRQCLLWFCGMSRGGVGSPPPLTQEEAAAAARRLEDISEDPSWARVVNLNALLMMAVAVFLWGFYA
Assay: Inhibitory effects on human SGLT2 activities (14C-AMG uptake, sodium-dependent glucose transport assay)
Conditions: CHO cells stably expressing hSGLT2, 37° C., 2 h, single determinations
Counter-ions that a name gives are not always drawn.
hey, just use t if measured IC50 is less than 3 nM, otherwise f

Past entries and their recorded results:
                                   compound                            assayed_system  assigned_category
0  CCOc1ccc(Cc2cc([C@@H]3O[C@H](CO)[C@@H](O)[C@H](O)[C@H]3O)c3c(c2Cl)N(C)CCO3)cc1  human SGLT2 (Homo sapiens (Human), UniProt P31639)                  f
1  CCOc1ccc(Cc2cc([C@@H]3O[C@H](CO)[C@@H](O)[C@H](O)[C@H]3O)cc(-c3ccsc3)c2C)cc1  human SGLT2 (Homo sapiens (Human), UniProt P31639)                  t
2  OC[C@H]1O[C@@H](c2cc(Cc3ccc(CN4CC4)cc3)c(Cl)c3c2CCO3)[C@H](O)[C@@H](O)[C@@H]1O [Example E185, acetic acid salt]  human SGLT2 (Homo sapiens (Human), UniProt P31639)                  f
3  OC[C@H]1O[C@@H](c2cc(Cc3ccc(O)cc3)c(Cl)c3c2CCO3)[C@H](O)[C@@H](O)[C@@H]1O  human SGLT2 (Homo sapiens (Human), UniProt P31639)                  t
4  N#CCc1ccc(Cc2cc([C@@H]3O[C@H](CO)[C@@H](O)[C@H](O)[C@H]3O)c3c(c2Cl)OCC3)cc1  human SGLT2 (Homo sapiens (Human), UniProt P31639)                  t

QUERY: IC50 strictly < 3 nM for this compound? CCOc1ccc(Cc2cc([C@@H]3O[C@H]([S+](C)[O-])[C@@H](O)[C@H](O)[C@H]3O)c3c(c2Cl)CC(C)O3)cc1 (some centres unmarked)
RESULT: f

QUERY: IC50 strictly < 3 nM for this compound? COc1ccc(Cc2cc([C@@H]3O[C@H](CO)[C@@H](O)[C@H](O)[C@H]3O)c3c(c2Cl)C(C)(C)CO3)cc1
RESULT: f

* * *

Biological target: UniProtKB P31639
Assay: Inhibitory effects on human SGLT2 activities (14C-AMG uptake, sodium-dependent glucose transport assay)
Details: CHO cells stably expressing hSGLT2, 37° C., 2 h, single determinations
Reported pIC50 values for a set of compounds
A value of pIC50 is the negative decimal logarithm of a concentration given in moles per litre.

Some solved cases for reference:
>>> df
                                   compound  experimental_result
0  OC[C@H]1S[C@@H](c2ccc(Cl)c(Cc3ccc4c(c3)OCCO4)c2)[C@H](O)[C@@H](O)[C@@H]1O [Example E047]                 8.38
1  Cc1c(Cc2ccc3c(c2)OCCO3)cc([C@@H]2O[C@H](CO)[C@@H](O)[C@H](O)[C@H]2O)cc1-c1ccccc1 [Example E084]                 8.28
2  OC[C@H]1O[C@@H](c2cc(Cc3ccc(OC4COC4)cc3)c(Cl)c3c2CCO3)[C@H](O)[C@@H](O)[C@@H]1O [Example E204]                 8.30
3  CC(C)(O)c1ccc(Cc2cc([C@@H]3O[C@H](CO)[C@@H](O)[C@H](O)[C@H]3O)c3c(c2Cl)OCC3)cc1 [Example E175]                 8.69
4  CC1Cc2c(Cl)c(Cc3ccc(C4CC4)cc3)cc([C@@H]3O[C@H](CO)[C@@H](O)[C@H](O)[C@H]3O)c2O1 (stereo partly drawn) [Example E133]                 8.95

QUERY: For OC[C@H]1O[C@@H](c2ccc(Cl)c(Cc3ccc4c(c3)CCCS4)c2)[C@H](O)[C@@H](O)[C@@H]1O [Example E061] , what is its reported pIC50?
RESULT: 8.47
